All values here come from paper PMC9172573.

Test Target: T1, His6-MBP-PHD3 (PHD3 domain of histone demethylase KDM5A) (UniProt P29375 1609-1659)
T1 chain: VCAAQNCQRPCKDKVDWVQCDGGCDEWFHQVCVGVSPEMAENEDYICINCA
Assay Protocol: FP
Square brackets hold non-standard residues; d marks the D form. Ends that are not written are not given here. Lys(Me3) = C[N+](C)(C)CCCC[C@H](N)C(=O)O
Consider the following binders and their measured Ki readings.
Please reply with the bare figure in µM and do not write the unit itself.

Worked set:
{"Binder": "ART[Lys(Me3)]QTARK (not fully specified) [9mer]", "Ki [µM]": 0.015}
{"Binder": "ART[Lys(Me3)]QTA (not fully specified) [7mer]", "Ki [µM]": 0.043}
{"Binder": "ART[Lys(Me3)]QTARKA [S10A]", "Ki [µM]": 0.012}

For the next question, use this binder.
Query string: Which Ki is reported for this binder? ART[Lys(Me3)]QTAAKS [R8A]
Result string: 0.069
